system: 772245-204-R-J1-PDC complex spheroid growth; test: Anticancer human tumor 772245-204-R-J1-PDC patient-derived rhabdomyosarcoma cell line growth inhibition [Asc]; conditions: curve of first compound; second compound 0.316 µM
Endpoint: pIC50
Answers are plain numbers, as −log10 of the molar value.

Can you share its pIC50? I mean this molecule: COc1c(OCCCN2CCOCC2)ccc2c3n(c(=NC(=O)c4cnc(N)nc4)nc12)CCN3 + CNC(C)C(=O)NC1CN(S(=O)(=O)c2cccc(S(=O)(=O)N3CCC4CCC(C(=O)NC(c5ccccc5)c5ccccc5)N4C(=O)C(NC(=O)C(C)NC)C3)c2)CCC2CCC(C(=O)NC(c3ccccc3)c3ccccc3)N2C1=O
7.14

====

system: 772245-204-R-J1-PDC complex spheroid growth; assay: Anticancer human tumor 772245-204-R-J1-PDC cell line growth inhibition [Asc]; conditions: curve of first compound; second compound 0.316 µM;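 note: compound exposure lasted seven days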
Endpoint: pIC50
One number for each entry, as −log10 of the molar value.

Can you share its pIC50? I mean this compound: C#Cc1c(F)ccc2cc(O)cc(-c3ncc4c(N5CC6CCC(C5)N6)nc(OCC56CCCN5CC(F)C6)nc4c3F)c12 (stereo unspecified) + Cc1c(S(C)(=O)=O)c(-c2cc(F)cc(N3CCN(c4ccc(NS(=O)(=O)c5ccc(NC(CCN6CCC(C(=O)OCCCP(=O)(O)O)CC6)CSc6ccccc6)c(S(=O)(=O)C(F)(F)F)c5)cc4)CC3)c2)c(-c2ccc(Cl)cc2)n1C(C)C
5.69

====

system: 772245-204-R-J1-PDC complex spheroid growth; assay: Anticancer human tumor 772245-204-R-J1-PDC cell line growth inhibition [Asc]; conditions: curve of first compound; second compound 0.03 µM;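 note: compound exposure lasted seven days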
pIC50: −log10 of the molar value.
Endpoint: pIC50

Parameters: items (list). Returns: pIC50 for each item.
1. Cn1ncnc1[C@H]1c2n[nH]c(=O)c3cc(F)cc(c23)N[C@@H]1c1ccc(F)cc1 + CCN1C(C(=O)NC23CCC(C(=O)O)(CC2)CC3)C(c2cccc(Cl)c2F)C2(C(=O)Nc3cc(Cl)ccc32)C12CCCCC2
2. C=CC(=O)N1CCN(c2nc(=O)n(-c3c(C)ccnc3C(C)C)c3nc(-c4c(O)cccc4F)c(F)cc23)C(C)C1 (configuration not stated) + CCN1C(C(=O)NC23CCC(C(=O)O)(CC2)CC3)C(c2cccc(Cl)c2F)C2(C(=O)Nc3cc(Cl)ccc32)C12CCCCC2
3. NC1CCC(NC2CC2c2ccccc2)CC1 (configuration not stated) + CCN1C(C(=O)NC23CCC(C(=O)O)(CC2)CC3)C(c2cccc(Cl)c2F)C2(C(=O)Nc3cc(Cl)ccc32)C12CCCCC2
4. C=C(F)C(=O)N1CCN(c2nc(OCC3CCCN3C)nc3c2CCN(c2cccc4cccc(Cl)c24)C3)CC1CC#N (configuration not stated) + CCN1C(C(=O)NC23CCC(C(=O)O)(CC2)CC3)C(c2cccc(Cl)c2F)C2(C(=O)Nc3cc(Cl)ccc32)C12CCCCC2
5. NC(=O)C(=Cn1cnc(-c2cc(C(F)(F)F)cc(C(F)(F)F)c2)n1)c1cncnc1 + CCN1C(C(=O)NC23CCC(C(=O)O)(CC2)CC3)C(c2cccc(Cl)c2F)C2(C(=O)Nc3cc(Cl)ccc32)C12CCCCC2
6. O=C(c1ccc(F)c(F)c1Nc1ccc(I)cc1F)N1CC(O)([C@@H]2CCCCN2)C1 + CCN1C(C(=O)NC23CCC(C(=O)O)(CC2)CC3)C(c2cccc(Cl)c2F)C2(C(=O)Nc3cc(Cl)ccc32)C12CCCCC2
7. C#Cc1c(F)ccc2cc(O)cc(-c3ncc4c(N5CC6CCC(C5)N6)nc(OCC56CCCN5CC(F)C6)nc4c3F)c12 (configuration not stated) + CCN1C(C(=O)NC23CCC(C(=O)O)(CC2)CC3)C(c2cccc(Cl)c2F)C2(C(=O)Nc3cc(Cl)ccc32)C12CCCCC2

1: < 7.00; 2: < 5.00; 3: < 7.00; 4: 5.41; 5: 7.12; 6: < 6.00; 7: < 5.00
